The origin of these recorded values is patent US20140309210A1.

measuredOn: purified ITK (Invitrogen PV3875) (Homo sapiens)
Construct: purchased Invitrogen PV3875
measurementProtocol: ITK peptide phosphorylation assay (Caliper LabChip or LCMS)
Assay type: biochemical
conditionDescription: Table 2, Examples 1-140, class symbols
quantityMeasured: Ki

The following compounds have reported results that may help.
compound: O=C(Nc1cnn(Cc2ccc(Cl)cc2Cl)c1)c1n[nH]c2ccccc12
measuredOn: purified ITK (Invitrogen PV3875) (Homo sapiens)
Ki: > 100 nM
//
compound: CNC(=O)c1ccc(Cn2cc(NC(=O)c3n[nH]c4cc(-c5cccnc5)ccc34)cn2)o1
measuredOn: purified ITK (Invitrogen PV3875) (Homo sapiens)
Ki: 1 to 100 nM

QUERY: Fill in: Ki of `COc1cccc(Cn2cc(NC(=O)c3n[nH]c4ccccc34)cn2)c1` is ___
RESULT: 1 to 100 nM

QUERY: Fill in: Ki of `CN(C)CCNCc1cccc(Cn2cc(NC(=O)c3n[nH]c4ccccc34)cn2)c1` is ___
RESULT: 1 to 100 nM

QUERY: Fill in: Ki of `O=C(Nc1cnn(Cc2csc(-c3ccccc3)n2)c1)c1n[nH]c2cc(-c3cn[nH]c3)ccc12` is ___
RESULT: 1 to 100 nM

QUERY: Fill in: Ki of `CC(C)c1nc(Cn2cc(NC(=O)c3n[nH]c4cc(-c5cn[nH]c5)ccc34)cn2)cs1` is ___
RESULT: 1 to 100 nM

QUERY: Fill in: Ki of `O=C(Nc1cnn(Cc2cccc(F)c2)c1)c1n[nH]c2ccccc12` is ___
RESULT: 1 to 100 nM

QUERY: Fill in: Ki of `Cc1n[nH]c(C)c1CCn1cc(NC(=O)c2n[nH]c3cc(-c4cn[nH]c4)ccc23)cn1` is ___
RESULT: 1 to 100 nM

QUERY: Fill in: Ki of `O=C(Nc1cnn(Cc2cccc(CNC3CCC3)c2)c1)c1n[nH]c2ccccc12` is ___
RESULT: 1 to 100 nM

---

measuredOn: purified ITK (Invitrogen PV3875) (Homo sapiens, UniProt Q08881)
Construct: purchased Invitrogen PV3875
Sequence (Q08881 whole entry): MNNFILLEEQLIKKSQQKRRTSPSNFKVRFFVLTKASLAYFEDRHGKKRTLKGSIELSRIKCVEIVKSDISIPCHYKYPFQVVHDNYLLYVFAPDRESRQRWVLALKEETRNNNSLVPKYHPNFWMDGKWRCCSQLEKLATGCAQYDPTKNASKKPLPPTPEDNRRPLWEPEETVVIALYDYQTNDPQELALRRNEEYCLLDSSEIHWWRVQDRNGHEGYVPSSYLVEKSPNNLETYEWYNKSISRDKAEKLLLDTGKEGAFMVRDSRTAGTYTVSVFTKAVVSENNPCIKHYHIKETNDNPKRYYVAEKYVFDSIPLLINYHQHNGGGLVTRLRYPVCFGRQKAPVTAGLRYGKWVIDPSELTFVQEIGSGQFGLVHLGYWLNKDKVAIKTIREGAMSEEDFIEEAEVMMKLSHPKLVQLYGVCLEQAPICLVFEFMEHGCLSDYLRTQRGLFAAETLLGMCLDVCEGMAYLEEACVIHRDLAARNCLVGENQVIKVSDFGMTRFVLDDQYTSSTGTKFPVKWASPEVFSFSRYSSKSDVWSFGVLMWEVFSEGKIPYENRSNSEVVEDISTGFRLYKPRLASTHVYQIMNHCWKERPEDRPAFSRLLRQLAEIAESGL
measurementProtocol: ITK peptide phosphorylation assay (Caliper LabChip or LCMS)
Format: biochemical
conditionDescription: Table 3, specific values for certain examples
Class key for Ki values: one: < 7 nM; two: ≥ 7 nM and < 40 nM; three: ≥ 40 nM

Use these answered entries as a reference point.
compound: COc1ccc(Cn2cc(NC(=O)c3n[nH]c4ccccc34)cn2)cc1 [Example 66]
labelClass: two
//
compound: O=C(Nc1cnn(Cc2cccnc2)c1)c1n[nH]c2ccccc12 [Example 54]
labelClass: three
//
compound: COc1cccc2[nH]nc(C(=O)Nc3cnn(Cc4cccc(C#N)c4)c3)c12 [Example 4]
labelClass: three
//
compound: O=C(Nc1cnn(Cc2cn3ccccc3n2)c1)c1n[nH]c2cc(-c3cn[nH]c3)ccc12 [Example 19]
labelClass: one
//
compound: N#Cc1cccc(Cn2cc(NC(=O)c3n[nH]c4ccc(Cl)cc34)cn2)c1 [Example 1]
labelClass: two
//
compound: Cc1ncccc1-c1ccc2c(C(=O)Nc3cnn(Cc4cccc(C#N)c4)c3)n[nH]c2c1 [Example 118]
labelClass: three
//
compound: O=C(Nc1cnn(Cc2cccc3cccnc23)c1)c1n[nH]c2cc(-c3cn[nH]c3)ccc12 [Example 9]
labelClass: two
//
compound: CC[C@@H](c1ccccc1)n1cc(NC(=O)c2n[nH]c3cc(-c4cc[nH]n4)ccc23)cn1 [Example 137]
labelClass: two

QUERY: Each compound maps to one class by Ki. Which class for O=C(Nc1cnn(Cc2cccc(CNCCO)c2)c1)c1n[nH]c2ccccc12 [Example 96] ?
RESULT: two

QUERY: Each compound maps to one class by Ki. Which class for O=C(Nc1cnn(Cc2noc3ccccc23)c1)c1n[nH]c2cc(-c3cn[nH]c3)ccc12 [Example 14] ?
RESULT: one

QUERY: Each compound maps to one class by Ki. Which class for N#Cc1cccc(Cn2cc(NC(=O)c3n[nH]c4cc(F)ccc34)cn2)c1 [Example 3] ?
RESULT: two

QUERY: Each compound maps to one class by Ki. Which class for O=C(Nc1cnn(CCN2CCCC(O)C2)c1)c1n[nH]c2ccccc12 (stereo not shown) [Example 75] ?
RESULT: three

QUERY: Each compound maps to one class by Ki. Which class for CC[C@@H](c1ccccc1)n1cc(NC(=O)c2n[nH]c3cc(-c4cncnc4)ccc23)cn1 [Example 138] ?
RESULT: one

QUERY: Each compound maps to one class by Ki. Which class for CC(C)(c1cccc(C#N)c1)n1cc(NC(=O)c2n[nH]c3ccccc23)cn1 [Example 77] ?
RESULT: three

QUERY: Each compound maps to one class by Ki. Which class for COc1cccc2c(C(=O)Nc3cnn(Cc4cccc(C#N)c4)c3)n[nH]c12 [Example 5] ?
RESULT: three

QUERY: Each compound maps to one class by Ki. Which class for O=C(Nc1cnn(Cc2nc3ccccc3s2)c1)c1n[nH]c2cc(-c3cn[nH]c3)ccc12 [Example 17] ?
RESULT: one

QUERY: Each compound maps to one class by Ki. Which class for Cc1ccc2[nH]nc(C(=O)Nc3cnn(Cc4cccc(C#N)c4)c3)c2c1 [Example 2] ?
RESULT: two
